test system: HCC-78; assay: relative viability (nuclei count vs DMSO), 5 days (fraction); higher = more cells survive; details: first compound 8 µM
Labelling: relative viability reported below 0.5 becomes satisfied; at or above becomes not satisfied.

{"Compound": "O=c1[nH]c2ccccc2n1C1CCN(CCCC(c2ccc(F)cc2)c2ccc(F)cc2)CC1 [Pimozide] + CC1(C)CCC(c2ccc(Cl)cc2)=C(CN2CCN(c3ccc(C(=O)NS(=O)(=O)c4ccc(N[C@H](CCN5CCOCC5)CSc5ccccc5)c(S(=O)(=O)C(F)(F)F)c4)cc3)CC2)C1 [Navitoclax] (partner 0.5 µM)", "Target Entity": "HCC-78", "Class Label": "not satisfied"}
{"Compound": "O=c1[nH]c2ccccc2n1C1CCN(CCCC(c2ccc(F)cc2)c2ccc(F)cc2)CC1 [Pimozide] + CS(=O)(=O)CCNCc1ccc(-c2ccc3ncnc(Nc4ccc(OCc5cccc(F)c5)c(Cl)c4)c3c2)o1 [Lapatinib] (partner 2 µM)", "Target Entity": "HCC-78", "Class Label": "not satisfied"}
{"Compound": "O=c1[nH]c2ccccc2n1C1CCN(CCCC(c2ccc(F)cc2)c2ccc(F)cc2)CC1 [Pimozide] + O=C(CCCCCCC(=O)Nc1ccccc1)NO [Vorinostat] (partner 1 µM)", "Target Entity": "HCC-78", "Class Label": "satisfied"}
{"Compound": "O=c1[nH]c2ccccc2n1C1CCN(CCCC(c2ccc(F)cc2)c2ccc(F)cc2)CC1 [Pimozide] + CC(=O)c1c(C)c2cnc(Nc3ccc(N4CCNCC4)cn3)nc2n(C2CCCC2)c1=O [Palbociclib] (partner 0.5 µM)", "Target Entity": "HCC-78", "Class Label": "not satisfied"}
{"Compound": "O=c1[nH]c2ccccc2n1C1CCN(CCCC(c2ccc(F)cc2)c2ccc(F)cc2)CC1 [Pimozide] + Cc1cc(Nc2cc(N3CCN(C)CC3)nc(Sc3ccc(NC(=O)C4CC4)cc3)n2)n[nH]1 [Tozasertib] (partner 0.1 µM)", "Target Entity": "HCC-78", "Class Label": "satisfied"}
{"Compound": "O=c1[nH]c2ccccc2n1C1CCN(CCCC(c2ccc(F)cc2)c2ccc(F)cc2)CC1 [Pimozide] + O=C(c1cc(Cc2n[nH]c(=O)c3ccccc23)ccc1F)N1CCN(C(=O)C2CC2)CC1 [Olaparib] (partner 8 µM)", "Target Entity": "HCC-78", "Class Label": "not satisfied"}

###

system: NCI-H838; test: relative viability (nuclei count vs DMSO), 5 days (fraction); higher = more cells survive; settings: first compound 0.005 µM
Quantity Name: relative viability

{"Compound": "Nc1ccn([C@@H]2O[C@H](CO)[C@@H](O)[C@@H]2O)c(=O)n1 [Cytarabine] + CS(=O)(=O)N1CCN(Cc2cc3nc(-c4cccc5[nH]ncc45)nc(N4CCOCC4)c3s2)CC1 [Pictilisib] (partner 1 µM)", "Readout Value": 0.334}
{"Compound": "COc1cc2nccc(Oc3ccc(NC(=O)Nc4cc(C)on4)c(Cl)c3)c2cc1OC [Tivozanib] + CS(=O)(=O)N1CCN(Cc2cc3nc(-c4cccc5[nH]ncc45)nc(N4CCOCC4)c3s2)CC1 [Pictilisib] (partner 1 µM)", "Readout Value": 0.443}
{"Compound": "Nc1ccn([C@@H]2O[C@H](CO)[C@@H](O)[C@@H]2O)c(=O)n1 [Cytarabine] + O=C(c1cc(Cc2n[nH]c(=O)c3ccccc23)ccc1F)N1CCN(C(=O)C2CC2)CC1 [Olaparib] (partner 8 µM)", "Readout Value": 0.633}
{"Compound": "COc1cc2nccc(Oc3ccc(NC(=O)Nc4cc(C)on4)c(Cl)c3)c2cc1OC [Tivozanib] + CC(=O)c1c(C)c2cnc(Nc3ccc(N4CCNCC4)cn3)nc2n(C2CCCC2)c1=O [Palbociclib] (partner 0.5 µM)", "Readout Value": 0.227}
{"Compound": "COc1cc2nccc(Oc3ccc(NC(=O)Nc4cc(C)on4)c(Cl)c3)c2cc1OC [Tivozanib] + Cc1nc(Nc2ncc(C(=O)Nc3c(C)cccc3Cl)s2)cc(N2CCN(CCO)CC2)n1 [Dasatinib] (partner 0.075 µM)", "Readout Value": 0.212}
{"Compound": "Nc1ccn([C@@H]2O[C@H](CO)[C@@H](O)[C@@H]2O)c(=O)n1 [Cytarabine] + C[C@]1(O)C[C@@H](c2nc(-c3ccc4ccc(-c5ccccc5)nc4c3)c3c(N)nccn32)C1 [Linsitinib] (partner 1 µM)", "Readout Value": 1.07}

Ref: the supplement of paper PMC10307832
